# Tested on: CP217
# Test description: qHTS profiling for inhibitors of Plasmodium falciparum proliferation (AID 504749); also: nearly all actives have a fitted effect of over 60% in size
# Details: P. falciparum in erythrocytes, SYBR Green DNA, 72 h; series mostly up to 28.7 µM
Records with an inconclusive call do not appear. Activity calls are given as the source filed them. Calls follow the shape of the dose curve; as a rule, active = well fitted inhibition curve with a large enough effect; inconclusive = small, poorly fitted or top-dose-only effect; inactive = flat fitted curve, though single readings scatter.
The reply should be one of these categories: y = active, n = inactive

CN1CCN(CCCN2c3ccccc3Sc3ccc(S(=O)(=O)N(C)C)cc32)CC1 y

Incoming: Could you check what this test reported for COC1=CC(=O)C[C@@H](C)[C@]12Oc1c(Cl)c(OC)cc(OC)c1C2=O ?
Outgoing: n

Incoming: Given O=C1OC(c2ccc(O)cc2)(c2ccc(O)cc2)c2ccccc21 , state the outcome it received in this test.
Outgoing: n
